Measured His-ZAP cell killing, cyno PSMA Average EC50, listed per entry for reference.
Target: cynomolgus PSMA, full-length, expressed on CHO cells (cynomolgus, UniProt A0A2K5VNZ0 1-750)
Experiment: cell-based or functional assay
metric.name: His-ZAP cell killing, cyno PSMA Average EC50 (nM)

{"binder": "1.16-6GS-2.1 (bispecific antibody, not shown: small tags and cut ends) EVQLLESGGGLVQPGGSLRLSCAASGFSFSSYALSWVRQAPGKGLEWVSSIGENNHTTDYADTVKGRFTISRDNSKNTLYLQMNSLRVEDTAVYYCVKDGVHWGQGTLVTVSSGGGGSGGGGSGGGGSGGGGSGGGGSGGGGSEVQLVESGGGVVQPGRSLRLSCAASGFSFSGYGMHWVRQAPGKGLEWVAYISYDGSNKYYADSVKGRFTISRDNSKNTLYLQMNSLRAEDTAVYYCAKDPAWGLRLGESSSYDFDIWGQGTMVTVSS", "quantitative.result": 0.013}
{"binder": "1.11-6GS-2.22 (bispecific antibody, not shown: small tags and cut ends) EVQLLESGGGLVQPGGSLRLSCAASGFSFSSYALSWVRQAPGKGLEWVSSIGENNDTTDYADNVKGRFTISRDNSKNTLYLQMNSLRVEDTAVYYCVKDGVHWGQGTLVTVSSGGGGSGGGGSGGGGSGGGGSGGGGSGGGGSEVQLVESGGGVVQPGRSLRLSCAASGFSFSGYGTHWVRQAPGKGLEWVAYISYDGSNKYYAAPVKGRFTISRDNSKNTLYLQMNSLRAEDTAVYYCAKDAAWGLRLGESSSYDFDIWGQGTMVTVSS", "quantitative.result": 0.0095}

Hey, just so you know, these numbers are from patent US20190023807A1.
